- target: SNAT2 (Homo sapiens, UniProt Q96QD8)
- Construct: hyperosmotically treated PC-3 cells, known to upregulate SNAT2; endogenous in cells; host or cells: PC-3 prostate cells exposed to hyperosmotic medium for 24 h
- Sequence (Q96QD8 1-506): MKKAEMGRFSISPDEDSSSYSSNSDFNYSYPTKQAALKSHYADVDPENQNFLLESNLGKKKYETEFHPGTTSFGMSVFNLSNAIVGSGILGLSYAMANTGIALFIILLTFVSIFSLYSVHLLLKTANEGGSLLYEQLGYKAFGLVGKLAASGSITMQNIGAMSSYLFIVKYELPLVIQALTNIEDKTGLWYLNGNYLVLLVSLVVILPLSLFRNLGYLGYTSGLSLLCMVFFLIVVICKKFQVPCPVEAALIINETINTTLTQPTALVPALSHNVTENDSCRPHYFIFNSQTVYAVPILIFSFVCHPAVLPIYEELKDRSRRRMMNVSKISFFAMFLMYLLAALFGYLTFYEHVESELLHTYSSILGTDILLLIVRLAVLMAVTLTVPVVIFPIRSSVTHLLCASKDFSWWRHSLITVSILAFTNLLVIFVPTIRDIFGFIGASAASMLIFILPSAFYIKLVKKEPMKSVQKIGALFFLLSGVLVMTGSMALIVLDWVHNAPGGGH
- method.notes: FLIPR membrane potential (FMP) assay in PC-3 cells
- Assay type: cell-based
- conditions: 10 mM compound, hyperosmotically treated PC-3 cells
Counter-ions that a name gives are not always drawn.
Each record here notes measured AUC, % of 10 mM L-alanine.

molecule: C[C@H](N)C(=O)O
u: %
AUC, % of 10 mM L-alanine: 100
--
molecule: O=C(O)[C@@H]1CCCCN1
u: %
AUC, % of 10 mM L-alanine: 81.9
--
molecule: C[C@H](N)C(=O)OCc1ccccc1 [L-Alanine benzyl ester, L-alanine benzyl ester hydrochloride]
u: %
AUC, % of 10 mM L-alanine: -6.6
--
molecule: N[C@@H](CCO)C(=O)O
u: %
AUC, % of 10 mM L-alanine: 117.5
--
molecule: CCOC(=O)[C@H](C)N [L-Alanine ethyl ester, L-alanine ethyl ester hydrochloride]
u: %
AUC, % of 10 mM L-alanine: 95.4
--
molecule: N[C@@H](CO)C(=O)O
u: %
AUC, % of 10 mM L-alanine: 108.6
--
molecule: COC(=O)[C@H](C)N [L-Alanine methyl ester, L-alanine methyl ester hydrochloride]
u: %
AUC, % of 10 mM L-alanine: 106.6
--
molecule: CCCC[C@H](N)C(=O)O
u: %
AUC, % of 10 mM L-alanine: 110.4

---

- target: SNAT2 (Homo sapiens, UniProt Q96QD8)
- Construct: hyperosmotically treated PC-3 cells, known to upregulate SNAT2; endogenous in cells; host or cells: PC-3 prostate cells exposed to hyperosmotic medium for 24 h
- Sequence (Q96QD8 1-506): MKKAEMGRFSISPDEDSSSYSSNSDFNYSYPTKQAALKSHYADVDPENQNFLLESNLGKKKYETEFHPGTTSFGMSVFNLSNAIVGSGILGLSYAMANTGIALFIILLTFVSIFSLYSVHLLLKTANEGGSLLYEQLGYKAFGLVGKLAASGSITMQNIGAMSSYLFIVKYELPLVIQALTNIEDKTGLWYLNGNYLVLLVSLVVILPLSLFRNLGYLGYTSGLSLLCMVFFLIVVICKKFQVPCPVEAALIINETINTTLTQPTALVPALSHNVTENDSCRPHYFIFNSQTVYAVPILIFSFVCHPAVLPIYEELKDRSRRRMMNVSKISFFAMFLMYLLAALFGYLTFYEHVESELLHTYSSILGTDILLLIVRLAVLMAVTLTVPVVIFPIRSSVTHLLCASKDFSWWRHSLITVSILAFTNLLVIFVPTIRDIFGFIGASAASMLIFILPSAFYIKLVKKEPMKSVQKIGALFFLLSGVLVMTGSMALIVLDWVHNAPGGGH
- method.notes: Inhibition of SNAT2-mediated 3H-glycine uptake in hyperosmotically treated PC-3 cells
- Assay type: cell-based
- conditions: hyperosmotically treated PC-3 cells, 5 min uptake of 11.1 nM 3H-glycine, pH 7.4; read-out: IC50
pIC50: −log10 of the molar value. Structures can show the parent of a compound that is named as a salt.
assay.metric: pIC50

molecule: N[C@@H](CCC(=O)OCc1ccccc1)C(=O)O [γ-Benzyl L-glutamate, γ-benzyl L-glutamate]
meas.value: 3.17
//
molecule: N[C@@H](CC1CCCCC1)C(=O)O
meas.value: 3.20
//
molecule: C[C@H](N)C(=O)O
meas.value: 3.77
//
molecule: C[C@H](N)C(=O)OCc1ccccc1 [L-Alanine benzyl ester, L-alanine benzyl ester hydrochloride]
meas.value: 3.41
